TESTED_ON: HLA-A*6802 (human)
TEST_NAME: competition with 125I-labelled probe peptide for purified HLA, gel filtration
TEST_CONDITIONS: remark: other sources report otherwise
REPORTED_PROPERTY: IC50 (µM)

BINDER | REPORTED_PROPERTY | RECORDED_RESULT
ILSTLPETTV (modifications not checked) [Peptide 1069.14 (HBV NUC 168, …)] | IC50 | 5.97
